experiment: refractive index (Na D-line) (dimensionless); details: 298.15 K; 101.33 kPa; Liquid; Standard Abbe refractometry
Observable: refractive index

Compound	refractive index
OCCOCCOCCO [triethylene glycol]	1.45447
CCOCCO [2-ethoxyethan-1-ol]	1.40803
CCOCCOCCO [3,6-dioxa-1-octanol]	1.42501
COCCOCCOC [2,5,8-trioxanonane]	1.40579
OCCO [1,2-ethanediol]	1.43
COCCOCCO [2-(2-methoxyethoxy)ethanol]	1.4239
CCOCCOCCOCC [diethylene glycol diethyl ether]	1.40978
COCCOCCOCCOCCOC [2,5,8,11,14-pentaoxapentadecane]	1.42992
COCCOCCOCCOC [2,5,8,11-tetraoxadodecane]	1.42071
OCCOCCO [diethylene glycol]	1.4454

Source of measurements: the NIST ThermoML archive (doi:10.1021/acs.jced.5b00662)
